Measured values drawn from ChEMBL document CHEMBL3885861 for this set.

Give Fbg for every item shown.
Species: Rattus norvegicus
Assay: Open TG-GATES - Regimen: Single
Assay type: toxicity, organism-based, Sprague-Dawley
Parameters: regimen Single, gender Male, age 6 weeks
Conditions: in vivo, po, 100 mg/kg, 3 h, tissue Blood, route gavage, dose level Low
Give your result in mg/dL as a bare value.

Look up Fbg: O=C(O)c1cc(/N=N/c2ccc(S(=O)(=O)Nc3ccccn3)cc2)ccc1O [SULFASALAZINE]
216.6

Can you check CCc1cc(C(N)=S)ccn1 [ETHIONAMIDE] next?
211.2

Record: O=C(O)c1cn(C2CC2)c2cc(N3CCNCC3)c(F)cc2c1=O [CIPROFLOXACIN]
213

Please answer likewise for C[C@H](CS)C(=O)N1CCC[C@H]1C(=O)O [CAPTOPRIL]
207

And Clc1ccccc1CN1CCc2sccc2C1 [TICLOPIDINE] ?
226.4

* * *

Species on record: Rattus norvegicus
Test: Open TG-GATES - Regimen: Single
Assay type: toxicity, organism-based, Sprague-Dawley
Parameters: regimen Single, gender Male, age 6 weeks
Settings: in vivo, po, 1000 mg/kg, 3 h, tissue Plasma, route gavage, dose level High
Threshold 800 IU/L. ALP below it: yes. ALP at it or above: no.

Does this compound meet the criterion ALP < 800 IU/L? CCc1cc(C(N)=S)ccn1 [ETHIONAMIDE]
yes

Try this compound next: O=C(O)c1cc(/N=N/c2ccc(S(=O)(=O)Nc3ccccn3)cc2)ccc1O
no

// repeat for Clc1ccccc1CN1CCc2sccc2C1 and report
no

Next entry: C[C@H](CS)C(=O)N1CCC[C@H]1C(=O)O
yes

* * *

Organism: Rattus norvegicus
Assay: Open TG-GATES - Regimen: Daily Repeat
Assay type: toxicity, organism-based, Sprague-Dawley
Parameters: regimen Daily Repeat, gender Male, age 6 weeks
Conditions: in vivo, po, 0 mg/kg, 72 h, tissue Plasma, route gavage, dose level Control, time 3 day
Kindly supply the reported Cl values for the records listed here.
Reply with just the number (in meq/L).

// returns reported Cl for input CC(=O)Oc1ccccc1C(=O)O [ASPIRIN]
102.2

Then COc1ccc(Cc2nccc3cc(OC)c(OC)cc23)cc1OC [PAPAVERINE] ?
108.2

Moving on to COc1ccc2c(c1)c(CC(=O)O)c(C)n2C(=O)c1ccc(Cl)cc1 [INDOMETHACIN]
107

How about this compound: CN(C)CCC=C1c2ccccc2CCc2ccccc21 [AMITRIPTYLINE]
105.6

Can you check CCc1cc(C(N)=S)ccn1 [ETHIONAMIDE] next?
104.6

Moving on to Cn1c(=O)c2[nH]cnc2n(C)c1=O.O [THEOPHYLLINE]
105.8

What about NC(=O)N/N=C/c1ccc([N+](=O)[O-])o1 [NITROFURAZONE] ?
106.2

Query O=C(O)c1cc(/N=N/c2ccc(S(=O)(=O)Nc3ccccn3)cc2)ccc1O [SULFASALAZINE] next
102.6

What do we get for NC(=O)N1c2ccccc2C=Cc2ccccc21 [CARBAMAZEPINE] ?
102.4

* * *

Organism: Rattus norvegicus
Test: Open TG-GATES - Regimen: Single
Assay type: toxicity, organism-based, Sprague-Dawley
Parameters: regimen Single, gender Male, age 6 weeks
Details: in vivo, po, 300 mg/kg, 3 h, tissue Plasma, route gavage, dose level Middle
Kindly supply the reported DBIL values for the records listed here.
Respond numerically; units are mg/dL and should not be typed.

Report DBIL for C[C@H](CS)C(=O)N1CCC[C@H]1C(=O)O [CAPTOPRIL] please.
0.006

Same lookup for CCc1cc(C(N)=S)ccn1 [ETHIONAMIDE] , please.
0.016

Repeat with O=C(O)c1cc(/N=N/c2ccc(S(=O)(=O)Nc3ccccn3)cc2)ccc1O [SULFASALAZINE]
0.064

Now give it for Clc1ccccc1CN1CCc2sccc2C1 [TICLOPIDINE] too.
0.078

What do we get for O=C(O)c1cn(C2CC2)c2cc(N3CCNCC3)c(F)cc2c1=O [CIPROFLOXACIN] ?
0.006
